# systemName: recombinant human PAD4 (human, UniProt Q9UM07 1-663)
# Sequence (Q9UM07 whole entry): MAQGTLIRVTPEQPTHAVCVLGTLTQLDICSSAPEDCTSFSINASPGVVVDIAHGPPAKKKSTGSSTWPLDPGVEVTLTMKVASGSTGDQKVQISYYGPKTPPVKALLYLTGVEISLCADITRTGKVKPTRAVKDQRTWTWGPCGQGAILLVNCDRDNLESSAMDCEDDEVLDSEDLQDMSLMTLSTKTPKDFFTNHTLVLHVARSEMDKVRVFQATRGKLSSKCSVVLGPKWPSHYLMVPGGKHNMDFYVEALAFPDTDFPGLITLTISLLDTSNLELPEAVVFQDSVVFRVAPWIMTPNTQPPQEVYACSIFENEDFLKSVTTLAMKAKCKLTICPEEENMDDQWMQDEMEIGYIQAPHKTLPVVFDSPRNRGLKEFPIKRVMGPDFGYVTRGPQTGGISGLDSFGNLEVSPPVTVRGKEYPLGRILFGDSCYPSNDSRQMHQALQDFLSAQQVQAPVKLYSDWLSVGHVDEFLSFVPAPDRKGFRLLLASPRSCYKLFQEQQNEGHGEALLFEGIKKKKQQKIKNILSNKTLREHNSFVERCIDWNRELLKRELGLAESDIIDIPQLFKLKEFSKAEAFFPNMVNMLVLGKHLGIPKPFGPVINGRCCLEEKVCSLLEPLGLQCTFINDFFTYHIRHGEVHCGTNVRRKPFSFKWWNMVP
# assayDetails: cell-based or functional assay
Numbered stars: 1 amine (or outer) side, 2 acyl side, 3 side chain; on linkers, the order of the positions; unused ones are H or OH. Square brackets hold non-standard residues; d marks the D form. Orn(CA) = ornithine chloroamidine, O(CA), N=C(CCl)NCCC[C@H](N[*:1])C(=O)[*:2]
readoutType: conversion of 0708-30 by PAD4, 10 µM inhibitor (%)

INSERT INTO measurements (binder, numericvalue) VALUES
  ('Ac-FFDSHKWH[Orn(CA)]DFFYSD-NH2 (SMILES CC(=O)N[C@@H](Cc1ccccc1)C(=O)N[C@@H](Cc1ccccc1)C(=O)N[C@@H](CC(=O)O)C(=O)N[C@@H](CO)C(=O)N[C@@H](Cc1c[nH]cn1)C(=O)N[C@@H](CCCCN)C(=O)N[C@@H](Cc1c[nH]c2ccccc12)C(=O)N[C@@H](Cc1c[nH]cn1)C(=O)N[C@@H](CCCNC(=N)CCl)C(=O)N[C@@H](CC(=O)O)C(=O)N[C@@H](Cc1ccccc1)C(=O)N[C@@H](Cc1ccccc1)C(=O)N[C@@H](Cc1ccc(O)cc1)C(=O)N[C@@H](CO)C(=O)N[C@@H](CC(=O)O)C(N)=O) [0741-02CA]', 63);
